Kindly supply the reported inhibition at 10 µM values for the records listed here.
- experimental_target: Human TRPV3 (Homo sapiens, UniProt Q8NET8)
- Construct: expressed in transfected cells; host or cells: CHO cells (G-418 selected)
- Sequence (Q8NET8 whole entry): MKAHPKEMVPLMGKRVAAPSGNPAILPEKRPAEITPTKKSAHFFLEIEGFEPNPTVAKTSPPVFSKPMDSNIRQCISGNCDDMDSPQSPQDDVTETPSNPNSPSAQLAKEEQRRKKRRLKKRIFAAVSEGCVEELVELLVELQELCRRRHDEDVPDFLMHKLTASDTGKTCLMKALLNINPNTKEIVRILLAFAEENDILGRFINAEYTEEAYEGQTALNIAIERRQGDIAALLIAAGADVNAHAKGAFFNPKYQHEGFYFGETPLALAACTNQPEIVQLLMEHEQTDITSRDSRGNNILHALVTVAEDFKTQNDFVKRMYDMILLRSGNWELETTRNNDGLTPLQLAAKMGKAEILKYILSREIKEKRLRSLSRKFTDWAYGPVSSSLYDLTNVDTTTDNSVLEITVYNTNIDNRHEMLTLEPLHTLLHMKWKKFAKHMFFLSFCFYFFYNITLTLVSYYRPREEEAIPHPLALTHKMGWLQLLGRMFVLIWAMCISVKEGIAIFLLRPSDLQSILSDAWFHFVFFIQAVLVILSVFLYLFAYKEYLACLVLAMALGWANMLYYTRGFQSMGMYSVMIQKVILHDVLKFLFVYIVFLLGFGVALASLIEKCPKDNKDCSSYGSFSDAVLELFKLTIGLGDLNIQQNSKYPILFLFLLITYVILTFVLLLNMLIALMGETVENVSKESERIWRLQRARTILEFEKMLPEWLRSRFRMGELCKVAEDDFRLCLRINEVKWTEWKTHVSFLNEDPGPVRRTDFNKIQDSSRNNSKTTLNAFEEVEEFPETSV
- protocol_summary: 45Calcium uptake assay: inhibition of 2-APB induced cellular uptake of radioactive calcium
- Format: cell-based
- condition_info: 10.0 μM compound; human TRPV3 expressing CHO cells; 2-APB 500 μM; read-out: Percentage inhibition at 10.0 μM
- Procedure: The illustrative examples of the present invention are screened for TRPV3 activity according to a modified procedure described in Toth, A. et al. Life Sciences (2003), 73, 487-498. […] The inhibition of TRPV3 receptor activation was followed as inhibition of 2-APB induced cellular uptake of radioactive calcium. […] Radioactivity in the lysate was measured in Packardt Top count after addition of liquid scintillant. […]
Numbers only, in %.

Consider the worked cases shown below.
# compound, measure_name, experimental_result
records = [
    ("O=C(CCc1ccccc1OC1CCCC1)N[C@H]1CC2(CCC2)Oc2c(Cl)cccc21 [Example 32]", "inhibition at 10 µM", 43.9),
    ("O=C(Cc1cccc2ccccc12)N[C@H]1CC2(CCC2)Oc2c(Cl)cccc21 [Example 16]", "inhibition at 10 µM", 35.2),
    ("COc1cc(CCC(=O)N[C@@H]2CC3(CCC3)Oc3ccc(Cl)cc32)cc2cc(C)oc12 [Example 79]", "inhibition at 10 µM", 95.5),
    ("COc1cccc(CCCC(=O)N[C@@H]2CC3(CCC3)Oc3ccc(Cl)cc32)c1OC1CCCC1 [Example 93]", "inhibition at 10 µM", 94.2),
]

State the recorded inhibition at 10 µM for every item in the following list.
1. COc1ccc(CCC(=O)NC2CC3(CCC3)Oc3ccc(Cl)cc32)c2cc(C)oc12 (centres unmarked) [Example 78]
2. O=C(CC1CCCc2ccccc21)NC1CC2(CCC2)Oc2ccc(Cl)cc21 (centres unmarked) [Example 21]
3. COc1cccc(CCCC(=O)NC2CC3(CCC3)Oc3cc(O)ccc32)c1OC1CCCC1 (centres unmarked) [Example 100]
4. COc1cccc(CCC(=O)NC2CC3(CCC3)Oc3c(Cl)cc(Cl)cc32)c1OC1CCCC1 (centres unmarked) [Example 59]
5. O=C(Cc1cccc2ccccc12)NC1CC2(CCC2)Oc2ccccc21 (centres unmarked) [Example 9]
6. COc1ccc(CCC(=O)N[C@H]2CC3(CCC3)Oc3ccc(Cl)cc32)c2ccccc12 [Example 70]
7. O=C(Cc1ccccn1)NC1CC2(CCC2)Oc2ccc(Cl)cc21 (centres unmarked) [Example 8]

// result
1. 91.3
2. 93.6
3. 87
4. 96.3
5. 68.5
6. 91.2
7. 22.5

For each listed entry, give its inhibition at 10 µM.
1. O=C(CCc1ccc(OC(F)F)c2ccccc12)N[C@H]1CC2(CCC2)Oc2ccc(Cl)cc21 [Example 72]
2. CC(C)S(=O)(=O)Nc1ccccc1CCC(=O)NC1CC2(CCC2)Oc2ccc(Cl)cc21 (centres unmarked) [Example 34]
3. CCCCOc1c(CCC(=O)NC2CC3(CCC3)Oc3c(Cl)cc(Cl)cc32)cccc1NS(C)(=O)=O (centres unmarked) [Example 63]

// result
93.3
77.1
97

List the reported inhibition at 10 µM of each compound below.
1. O=C(CC1CCc2ccccc2C1)NC1CC2(CCC2)Oc2ccc(Cl)cc21 (centres unmarked) [Example 22]
2. CS(=O)(=O)Nc1ccccc1CC(=O)NC1CC2(CCC2)Oc2ccc(Cl)cc21 (centres unmarked) [Example 3]
3. O=C(CCCc1ccccc1OC1CCCC1)NC1CC2(CCC2)Oc2ccc(Cl)cc21 (centres unmarked) [Example 91]

// result
72.1
33.1
82.5
